FYI, the data here is from patent US9012628B2.

Assay: Comparative tests for stability of the crystalline form E and other crystalline forms (storage, total impurity and content)
Type: physicochemical
Conditions: Freezing −20° C., month 9
From the text: Comparative tests for stability of the crystalline form E and other crystalline forms. […]
MEASURED PROPERTY: Total impurity (%)

[[record]]
molecule = "C[C@@H](O)[C@H]1C(=O)N2C(C(=O)[O-])=C(S[C@@H]3CN[C@H](C(=O)Nc4cccc(C(=O)O)c4)C3)[C@H](C)[C@H]12.[Na+] [Crystalline form A, ertapenem sodium]"
value_observed = 0.7

[[record]]
molecule = "C[C@@H](O)[C@H]1C(=O)N2C(C(=O)[O-])=C(S[C@@H]3CN[C@H](C(=O)Nc4cccc(C(=O)O)c4)C3)[C@H](C)[C@H]12.[Na+] [Crystalline form B, ertapenem sodium]"
value_observed = 0.8

[[record]]
molecule = "C[C@@H](O)[C@H]1C(=O)N2C(C(=O)[O-])=C(S[C@@H]3CN[C@H](C(=O)Nc4cccc(C(=O)O)c4)C3)[C@H](C)[C@H]12.[Na+] (relative stereo) [Crystalline form E]"
value_observed = 0.8

[[record]]
molecule = "C[C@@H](O)[C@H]1C(=O)N2C(C(=O)[O-])=C(S[C@@H]3CN[C@H](C(=O)Nc4cccc(C(=O)O)c4)C3)[C@H](C)[C@H]12.[Na+] [Amorphous, ertapenem sodium]"
value_observed = 1.5


(P) C[C@@H](O)[C@H]1C(=O)N2C(C(=O)[O-])=C(S[C@@H]3CN[C@H](C(=O)Nc4cccc(C(=O)O)c4)C3)[C@H](C)[C@H]12.[Na+] [Crystalline form C, ertapenem sodium]
(Q) C[C@@H](O)[C@H]1C(=O)N2C(C(=O)[O-])=C(S[C@@H]3CN[C@H](C(=O)Nc4cccc(C(=O)O)c4)C3)[C@H](C)[C@H]12.[Na+] [Crystalline form D, ertapenem sodium]
**Query** Field: lower Total impurity | Options: P / Q I would appreciate it if you answered with the label of your choice.
**Result** P
